src = ChEMBL document CHEMBL5104192

// reported pEC50 per item
# experimentalSystem: Melanocortin receptor 4 (Homo sapiens)
# Sequence (P32245 whole entry): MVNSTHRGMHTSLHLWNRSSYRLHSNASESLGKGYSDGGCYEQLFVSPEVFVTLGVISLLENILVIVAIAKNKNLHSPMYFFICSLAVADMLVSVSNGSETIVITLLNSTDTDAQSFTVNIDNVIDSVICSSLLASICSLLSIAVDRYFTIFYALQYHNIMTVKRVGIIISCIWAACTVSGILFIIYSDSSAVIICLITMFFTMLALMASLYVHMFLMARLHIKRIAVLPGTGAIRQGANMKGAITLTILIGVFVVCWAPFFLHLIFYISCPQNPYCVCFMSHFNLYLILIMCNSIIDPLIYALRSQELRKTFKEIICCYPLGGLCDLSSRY
# testMethodNotes: Agonist activity at human MC4R expressed in HEK2936E cells assessed as cAMP production in presence of IBMX by time resolved fluorescence assay
*1 amine or outer side, *2 acyl side, *3 side chain or, on linkers, in order; H or OH if unused. Where a SMILES comes first, the peptide text is derived from it. Bridges are numbered along the chain shown (N, C = ends). [ ]: non-standard residue; d: D form. X4 = C#CCCCCN1C(=O)C([*:1])=C([*:2])C1=O; X3 = NC(=O)/C(=C(\C(=O)O)[*:2])[*:1]; CH2COCH2 = O=C(C[*:1])C[*:2]; Nle = CCCC[C@H](N)C(=O)O; X7 = C(C[*:1])C[*:2]
Reminder that pEC50 means the negative base-10 logarithm of the concentration expressed in mol/L.

## Input Answer with reported pEC50 of CCCC[C@@H]1NC(=O)[C@@H]2CS/C(C(=O)O)=C(/C(N)=O)SC[C@H](NC(=O)[C@H](CCCNC(=N)N)NC(=O)[C@H](CC(=O)O)NC(=O)[C@H](Cc3c[nH]c4ccccc34)NC(=O)[C@H](CCCNC(=N)N)NC(=O)[C@H](Cc3ccccc3)NC(=O)[C@H](Cc3cnc[nH]3)NC(=O)CNC1=O)C(=O)N[C@@H](Cc1cnc[nH]1)C(=O)N[C@@H](Cc1ccccc1)C(=O)N[C@@H](CCCNC(=N)N)C(=O)N[C@@H](Cc1c[nH]c3ccccc13)C(=O)N[C@@H](CCCNC(=N)N)C(=O)N2 (cyclo(CHFRWRC[Nle]GHFRWDR); linker 1-7 via X3)
## Output 7.95

## Input Answer with reported pEC50 of CCCC[C@@H]1NC(=O)[C@@H]2CSCCCSC[C@H](NC(=O)[C@H](CCCNC(=N)N)NC(=O)[C@H](CC(=O)O)NC(=O)[C@H](Cc3c[nH]c4ccccc34)NC(=O)[C@H](CCCNC(=N)N)NC(=O)[C@H](Cc3ccccc3)NC(=O)[C@H](Cc3cnc[nH]3)NC(=O)CNC1=O)C(=O)N[C@@H](Cc1cnc[nH]1)C(=O)N[C@@H](Cc1ccccc1)C(=O)N[C@@H](CCCNC(=N)N)C(=O)N[C@@H](Cc1c[nH]c3ccccc13)C(=O)N[C@@H](CCCNC(=N)N)C(=O)N2 (cyclo(CHFRWRC[Nle]GHFRWDR); linker 1-7 via X7)
## Output 8.54

## Input Answer with reported pEC50 of C#CCCCCN1C(=O)C2=C(SC[C@@H]3NC(=O)[C@H](CCCNC(=N)N)NC(=O)[C@H](CC(=O)O)NC(=O)[C@H](Cc4c[nH]c5ccccc45)NC(=O)[C@H](CCCNC(=N)N)NC(=O)[C@H](Cc4ccccc4)NC(=O)[C@H](Cc4cnc[nH]4)NC(=O)CNC(=O)[C@H](CCCC)NC(=O)[C@H](CS2)NC(=O)[C@H](CCCNC(=N)N)NC(=O)[C@H](Cc2c[nH]c4ccccc24)NC(=O)[C@H](CCCNC(=N)N)NC(=O)[C@H](Cc2ccccc2)NC(=O)[C@H](Cc2cnc[nH]2)NC3=O)C1=O (cyclo(CHFRWRC[Nle]GHFRWDR); linker 1-7 via X4)
## Output 8.66

## Input Answer with reported pEC50 of CCCC[C@@H]1NC(=O)[C@@H]2CSCC(=O)CSC[C@H](NC(=O)[C@H](CCCNC(=N)N)NC(=O)[C@H](CC(=O)O)NC(=O)[C@H](Cc3c[nH]c4ccccc34)NC(=O)[C@H](CCCNC(=N)N)NC(=O)[C@H](Cc3ccccc3)NC(=O)[C@H](Cc3cnc[nH]3)NC(=O)CNC1=O)C(=O)N[C@@H](Cc1cnc[nH]1)C(=O)N[C@@H](Cc1ccccc1)C(=O)N[C@@H](CCCNC(=N)N)C(=O)N[C@@H](Cc1c[nH]c3ccccc13)C(=O)N[C@@H](CCCNC(=N)N)C(=O)N2 (cyclo(CHFRWRC[Nle]GHFRWDR); linker 1-7 via CH2COCH2)
## Output 8.14
